Source: paper PMC7525492

- assay.procedure: Functional stability in human plasma read out by 12G5 competition
- Assay type: in vitro ADME
- conditions.used: human, plasma, 20 µM in pooled human plasma, 37 °C; Fig. 4a; read-out: half-life t1/2 in plasma
Where a name gives a salt, the structure may show the parent alone.
property.label: half-life at 20 µM

Given the entry c1cc(CN2CCCNCCNCCCNCC2)ccc1CN1CCCNCCNCCCNCC1 [AMD3100, AMD3100 octahydrochloride hydrate] , report its measured half-life at 20 µM.
> 48 h

###

- assay.procedure: Functional stability in human plasma read out by 12G5 competition
- Type: in vitro ADME
- conditions.used: human, plasma, 20 µM in plasma of an individual donor, 37 °C; read-out: half-life t1/2 in plasma
Ends that are not written are not given here.
property.label: half-life at 20 µM (min)
State just the number; it will be interpreted in min.

Given the entry IVRWSKKVPCVS [EPI-X4 WSC02] , report its measured half-life at 20 µM.
9.7

###

- assay.procedure: in vitro
- Assay type: in vitro ADME, human
- conditions.used: human, 20 µM in whole EDTA blood of an individual donor, 37 °C; read-out: half-life t1/2 in blood
Where a name gives a salt, the structure may show the parent alone.
property.label: half-life at 20 µM

Given the entry c1cc(CN2CCCNCCNCCCNCC2)ccc1CN1CCCNCCNCCCNCC1 [AMD3100, AMD3100 octahydrochloride hydrate] , report its measured half-life at 20 µM.
> 24 h
